So I've got Ki readings for Procathepsin L (Homo sapiens), take a look.
Peptide text beside a SMILES is read from it. * marks the point of attachment. Phenylacetyl(4-Ph) = O=C(Cc1ccc(-c2ccccc2)cc1)*
assay_metric: Ki (nM)

1. CSC[C@H](NC(=O)Cc1ccc(-c2ccccc2)cc1)C(=O)NCC(=O)N[C@@H](Cc1ccccc1)C(=O)N[C@@H](Cc1ccccc1)C(N)=O ({Phenylacetyl(4-Ph)}-C(Me)GFF-NH2)
2. N=C(N)NCCC[C@@H](NC(=O)[C@H](CO)NC(=O)Cc1ccc(-c2ccccc2)cc1)C(=O)N[C@@H](Cc1ccccc1)C(=O)N[C@@H](Cc1ccccc1)C(N)=O
3. N=C(N)NCCC[C@H](NC(=O)[C@H](CS)NC(=O)Cc1ccc(-c2ccccc2)cc1)C(=O)N[C@@H](Cc1ccc(-c2ccccc2)cc1)C(=O)NCCc1ccccc1
Prompt: Put these in order: smallest Ki first, largest last. Would you mind listing the labels in the order asked for?
Completion: 3, 1, 2
(3: 270 nM, 1: 930 nM, 2: 74000 nM)
